target: T1, eukaryotically produced human IL-6 (human, UniProt P05231 30-212); experiment: SPR; periplasmic fraction; against parental 29B11
T1 construct: also called eukIL-6; Euk IL-6
quantityMeasured: fold improvement ka (fold)
Numbers only, in fold.

Ask: Entry under review: Fab 55C1 (Fab, V domains shown, VL-shuffled Fab of 29B11, periplasmic fraction; also called 55C1a) VH: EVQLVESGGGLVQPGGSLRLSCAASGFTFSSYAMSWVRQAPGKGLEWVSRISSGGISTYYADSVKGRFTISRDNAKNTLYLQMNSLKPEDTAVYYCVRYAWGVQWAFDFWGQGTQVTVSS VL: LNFMLTQPPSVSGSPGKTVTISCAGTSSDVGYGNYVSWYQQLPGTAPKLLIYNVNKRASGITDRFSGSKSGNTASLTISGLQSEDEADYYCASYRTGDNAAFGGGTKLTVLG . Reported fold improvement ka?
Result: 2.35
